MEASURED TARGET: T1, human OX40 protein (Acro biosystem, #OX0-H5224) (human, UniProt P43489 29-216)
T1 construct: Bought recombinant protein
T1 sequence (looked up): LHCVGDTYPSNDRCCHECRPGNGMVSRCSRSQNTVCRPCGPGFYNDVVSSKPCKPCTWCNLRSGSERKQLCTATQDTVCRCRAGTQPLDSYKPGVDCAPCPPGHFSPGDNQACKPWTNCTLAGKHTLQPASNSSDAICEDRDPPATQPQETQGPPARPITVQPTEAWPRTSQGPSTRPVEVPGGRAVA
ASSAY METHOD TEXT: ELISA, coated human OX40 protein
Consider the following binders and their measured EC50 readings.
ASSAY ENDPOINT: EC50 (nM)

>>> quantitative_result("PR002077 (antibody, human IgG1, V domains shown, no light chain; also called anti-OX40 HCAb antibody) VH: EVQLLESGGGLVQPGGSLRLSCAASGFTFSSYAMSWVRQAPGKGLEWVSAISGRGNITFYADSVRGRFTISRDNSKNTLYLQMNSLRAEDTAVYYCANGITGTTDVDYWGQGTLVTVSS")
0.146
>>> quantitative_result("PR002072 (antibody, human IgG1, V domains shown, no light chain; also called anti-OX40 HCAb antibody) VH: EVQLLESGGGLVQPGGSLRLSCAASGFTFSSYAMSWVRQASGKGLEWISAISGSGGSTYYADSVRGRFTISRDNSKNTLYLQMNSLRADDTAVYYCANGMTGTTDVDFWGQGTPVTVSS")
0.0577
>>> quantitative_result("PR002069 (antibody, human IgG1, V domains shown, no light chain; also called anti-OX40 HCAb antibody) VH: EVQLLESGGGLVQPGGSLRLSCAASGFTFSSYAMSWVRQAPGKGREWVSAISGGGGNTFYADSVRGRFTISRDNSKNTLYLQMNSLRAEDTAVYYCANGVTGTTDVDYWGQGTLVTVSS")
0.051
>>> quantitative_result("PR002056 (antibody, human IgG1, V domains shown, no light chain; also called anti-OX40 HCAb antibody) VH: EVQLLESGGGLVQPGGSLRLSCAASGFTFSSYAMSWVRQAPGKGLEWVSAISGGGGSIFYADSVRGRFTISRDNSKNTLYLQMNSLRAEDTAVYYCANGMTGTTDVDYWGQGTLVTVSS")
0.057

src = patent US20230295324A1
